Each recorded value in this set is attributed to patent US20230357429A1.

Target: T1, Peptide-39 (cysteine pairing not given here; also: biotinylated, site not given here)
T1 peptide: VDFCGLYHWPICYQVD
Assay: ELISA, Fab on captured biotin-peptide
Where no end group is shown, it is not given here.
measured.parameter: EC50 (nM)
// return numeric value only (unit: nM, not printed)

Completed entries (count: 2):
TBD-11 (HC R98A) (Fab, V domains shown, Fab; also called HC R98A mutant) VH: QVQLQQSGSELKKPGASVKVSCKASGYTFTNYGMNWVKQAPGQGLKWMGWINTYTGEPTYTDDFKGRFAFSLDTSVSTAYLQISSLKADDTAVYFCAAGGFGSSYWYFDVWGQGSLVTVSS VL: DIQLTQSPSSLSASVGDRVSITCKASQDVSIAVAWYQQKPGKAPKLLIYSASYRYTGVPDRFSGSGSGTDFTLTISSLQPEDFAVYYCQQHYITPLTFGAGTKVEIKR | 151
TBD-1 wt (Fab, V domains shown, Fab; the heavy chain entry is VH-CH1; also called wild-type anti-TROP2 Fab (hRS7); TROP2 Fab) VH: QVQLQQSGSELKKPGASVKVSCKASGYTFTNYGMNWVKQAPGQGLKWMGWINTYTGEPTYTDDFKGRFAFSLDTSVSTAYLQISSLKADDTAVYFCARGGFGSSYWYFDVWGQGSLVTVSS VL: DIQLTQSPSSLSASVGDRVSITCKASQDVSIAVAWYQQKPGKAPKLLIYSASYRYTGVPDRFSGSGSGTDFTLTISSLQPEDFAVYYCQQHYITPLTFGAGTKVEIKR | 95.2

Exercise: Consider the binder TBD-22 (HC D109A) (Fab, V domains shown, Fab; also called HC D109A mutant) VH: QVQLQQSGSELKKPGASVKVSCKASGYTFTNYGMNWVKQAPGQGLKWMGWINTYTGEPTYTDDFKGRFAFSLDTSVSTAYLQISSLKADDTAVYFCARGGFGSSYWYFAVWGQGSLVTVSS VL: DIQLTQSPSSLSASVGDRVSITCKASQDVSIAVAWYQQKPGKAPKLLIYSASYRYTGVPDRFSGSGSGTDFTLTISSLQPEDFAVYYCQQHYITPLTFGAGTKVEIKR and give its measured EC50.
Solution: 4.6
